molecular target: Neprilysin (Oryctolagus cuniculus); assay: Inhibitory activity against Leu-enkeph of Neutral endopeptidase
Sequence (P08049 whole entry): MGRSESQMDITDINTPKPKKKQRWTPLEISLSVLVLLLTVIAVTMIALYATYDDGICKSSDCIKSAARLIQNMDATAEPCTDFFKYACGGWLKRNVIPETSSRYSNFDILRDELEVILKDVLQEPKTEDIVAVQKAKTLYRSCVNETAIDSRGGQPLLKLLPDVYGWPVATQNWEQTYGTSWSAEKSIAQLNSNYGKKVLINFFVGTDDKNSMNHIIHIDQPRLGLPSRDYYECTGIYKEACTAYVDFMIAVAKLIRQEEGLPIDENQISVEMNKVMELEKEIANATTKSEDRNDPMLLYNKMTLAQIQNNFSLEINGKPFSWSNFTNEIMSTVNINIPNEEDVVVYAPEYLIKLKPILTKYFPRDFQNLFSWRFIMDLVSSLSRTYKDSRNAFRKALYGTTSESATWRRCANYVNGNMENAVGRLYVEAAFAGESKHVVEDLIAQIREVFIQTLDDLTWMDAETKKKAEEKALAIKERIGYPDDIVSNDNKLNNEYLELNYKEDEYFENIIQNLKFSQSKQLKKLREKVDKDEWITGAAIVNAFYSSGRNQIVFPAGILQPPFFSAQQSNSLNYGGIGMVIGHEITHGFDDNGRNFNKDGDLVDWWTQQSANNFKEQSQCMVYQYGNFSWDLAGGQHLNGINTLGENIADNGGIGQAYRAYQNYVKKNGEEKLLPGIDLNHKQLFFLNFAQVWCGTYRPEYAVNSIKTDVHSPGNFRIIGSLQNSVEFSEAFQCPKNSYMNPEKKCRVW
measurement-label: pIC50
Please treat pIC50 as minus the base-10 logarithm of the molar concentration.

- molecule: "CC(C)C(C(=O)NO)C(=O)NC(CC(N)=O)C(=O)O (stereo not drawn)"
  measurement-label: "pIC50"
  endpoint-result: 9.00
- molecule: "CC(C)CC(C(=O)NO)C(=O)NC(Cc1c[nH]c2ccccc12)C(=O)O (stereo not drawn)"
  measurement-label: "pIC50"
  endpoint-result: 10.52
- molecule: "CC(C)C[C@H](NP(=O)(O)O[C@@H]1O[C@@H](C)[C@H](O)[C@@H](O)[C@H]1O)C(=O)N[C@@H](Cc1c[nH]c2ccccc12)C(=O)O [PHOSPHORAMIDON]"
  measurement-label: "pIC50"
  endpoint-result: 8.22
- molecule: "CC(C)C(CNO)C(=O)NC(Cc1c[nH]c2ccccc12)C(=O)O (stereo not drawn)"
  measurement-label: "pIC50"
  endpoint-result: 6.02
- molecule: "CC(C)C(C(=O)NO)C(=O)NC(Cc1c[nH]c2ccccc12)C(N)=O (stereo not drawn)"
  measurement-label: "pIC50"
  endpoint-result: 8.70

Entry `CC(C)C[C@H](C(=O)NO)C(=O)N[C@@H](C)C(=O)NCC(N)=O` has what pIC50?
8.70

What would you report for CC(C)C(C(=O)NO)C(=O)NCC(=O)O (stereo not drawn) ?
8.52

Subsequent entry: CC(C)C(CC(=O)NO)C(=O)NCCC(=O)O (stereo not drawn)
7.52

// provenance: ChEMBL document CHEMBL1128394
